Where do these numbers come from? They come from patent US10112911B2.

Test system: RSV (Group A, Long Strain)
Assay: Cytopathetic effect (CPE) protection antiviral assay, MTT readout
Type: cell-based
Conditions: human respiratory syncytial virus, HEp-2, 96 h, HEp-2 cells, 0.2 MOI RSV, 4 days; Table 2, determination repeated to confirm window; read-out: RSV EC50
experimental-readout: EC50

Would you please look over these solved cases?
> print(dat)
                                   compound  experimental.readout   result
1  COC(=O)c1cnc(N2CCN(/C(=N\C#N)Nc3ccccc3Cl)C(C(C)C)C2)cn1 (centres unmarked) [Example 1.2]                  EC50  1.13 µM
2  Cc1ccccc1N/C(=N/C#N)N1CCN(c2nc3ccccc3o2)CC1C(C)C (centres unmarked) [Example 1.4]                  EC50  1.14 µM
3  Cc1ccccc1N/C(=N/C#N)N1CCN(c2nccnc2C#N)CC1C(C)C (centres unmarked) [Example 1.1]                  EC50  0.89 µM
4  Cc1ccccc1N/C(=N/C#N)N1CCN(c2nc3cccc(Cl)c3o2)CC1C(C)C (centres unmarked) [Example 1.5]                  EC50  0.81 µM

Proceed to the following item.
Q) Consider the compound shown here: Cc1ccc2oc(N3CCN(/C(=N\C#N)Nc4ccccc4C)C(C(C)C)C3)nc2c1 (centres unmarked) [Example 1.7] What is its recorded EC50?
A) 0.83 µM

---

Tested on: RSV (Group A, Long Strain)
Experiment: Cytopathetic effect (CPE) protection antiviral assay, MTT readout
Type: cell-based
Conditions: human respiratory syncytial virus, HEp-2, 96 h, HEp-2 cells, 0.2 MOI RSV, 4 days incubation, protection from CPE (Table 1); read-out: RSV EC50
Protocol: HEp-2 cells and RSV (Group A, Long Strain) were obtained from the American Type Culture Collection (Manassas, Va.). A cytopathetic effect (CPE) protection assay was performed to determine the ability of a compound to protect the cells from viral infection and thus the CPE induced by viral infection. […] After 4 days of incubation at 37° C., the viability of cells was assessed using MTT (Thiazolyl blue tetrazolium bromide, Sigma). […]
pEC50: −log10 of the molar value.
experimental-readout: pEC50

Here is how some compounds turned out for pEC50.
> print(dat)
                                   compound  result
1  CC(C)c1ccccc1N/C(=N/C#N)N1CCN(c2cnc3ccccc3n2)CC1C(C)C (stereo not shown) [Example 1.26]  < 5.00
2  Cc1cccc(N/C(=N/C#N)N2CCN(c3cnc4ccccc4n3)CC2CC(C)C)c1 (stereo not shown) [Example 1.38]  < 5.51
3  CC(C)CC1CN(c2cnc3ccccc3n2)CCN1/C(=N\C#N)Nc1ccccc1F (stereo not shown) [Example 1.39]  < 5.00
4  CC(C)C1CN(c2cnc3ccccc3n2)CCN1/C(=N\C#N)Nc1cccc(F)c1 (stereo not shown) [Example 1.20]  < 5.00
5  Cc1ncccc1N/C(=N/C#N)N1CCN(c2cnc3ccccc3n2)CC1C(C)C (stereo not shown) [Example 1.73]  < 5.00
6  CC(C)C1CN(c2cnc3ccccc3n2)CCN1/C(=N\C#N)Nc1ccc2c(c1)OCO2 (stereo not shown) [Example 1.14]  < 5.00

Q) I am curious: what pEC50 value has been reported for Cc1ccccc1NC(=NC#N)N1CCN(c2cnc3ccccc3n2)C(C(C)C)C1 (stereo not shown) [Example 1.70] ?
A) < 5.00

Q) Item under review: CC(C)C1CN(c2cnc3ccccc3n2)CCN1/C(=N\C#N)Nc1ccc(Cl)cc1 (stereo not shown) [Example 1.15] . Reported pEC50?
A) < 5.00

Q) // lookup pEC50 for Cc1ccncc1NC(=NC#N)N1CCN(c2cnc3ccccc3n2)CC1C(C)C (stereo not shown) [Example 1.72]
A) < 5.27

Q) So what does the record say about pEC50 for CC(C)C1CN(c2cnc3ccccc3n2)CCN1/C(=N\C#N)Nc1ccc(F)cc1 (stereo not shown) [Example 1.23] ?
A) < 5.00

Q) Given the entry Cc1ccccc1N/C(=N/C#N)N1CCN(c2cnc3cccc(C(F)(F)F)c3n2)CC1C(C)C (stereo not shown) [Example 1.59] , report its measured pEC50.
A) < 5.49

Q) Please give the measured pEC50 for this compound: Cc1ccccc1NC(=NC#N)NC(CNc1cnc2ccccc2n1)C(C)C (stereo not shown) [Example 2.1]
A) < 5.00

Q) GET /values?readout=pEC50&item= Cc1ccccc1N/C(=N/C#N)N1CCN(c2nc3ccccc3nc2C(F)(F)F)CC1C(C)C (stereo not shown) [Example 1.53]
A) < 5.00
